The measurements presented in this section are drawn from PubChem BioAssay (NCI).

As shown below, each of these compounds has a reported TGI value.
system: HOP-92 NSCLC; assay: NCI tumour cell line growth inhibition, 48 h
Where a SMILES comes first, the peptide text is derived from it. The star is where a group is joined. OBn = c1ccc(CO*)cc1

Compound	TGI
Cc1ccc2[nH]c(=O)c(C(C#N)c3ccccc3)nc2c1 (stereo not drawn)	93.8 µM
Cc1ccc(S(=O)(=O)n2cnc(CC(NC(=O)C3CCC(=O)N3C(=O)OCc3ccccc3)C(=O)N3CCCC3C(=O)NN)c2)cc1 (stereo not drawn)	> 100 µM
NC(CCC(=O)OCc1ccccc1)C(=O)NC(CCC(=O)OCc1ccccc1)C(=O)O (stereo not drawn) (H-Glu(OBn)-Glu(OBn)-OH; configuration not given here)	> 100 µM
CC(C)(O)[C@H]1[C@@H]2OC(=O)[C@H]1[C@]1(O)C[C@H]3OC34C(=O)O[C@H]2[C@@]41C (stereo partly drawn) (tested in a mixture with another compound)	> 100 µM
C/C(=C\c1ccn(-c2ccc(N)cc2)n1)[C@@H]1C[C@@H]2O[C@]2(C)CCC[C@H](C)[C@H](O)[C@@H](C)C(=O)C(C)(C)[C@@H](O)CC(=O)O1	> 50 µM
O=C(Cn1ccnc1[N+](=O)[O-])NCC(F)(F)C(F)(F)F	> 100 µM
Nc1ccc(C(=O)NN2C(=O)C(Cl)C2c2ccccc2O)cc1 (stereo not drawn)	> 100 µM
COc1cc([C@H]2Oc3cc(O)c4c(=O)cc(-c5ccc(O)cc5)oc4c3O[C@@H]2CO)ccc1O	60.7 µM
COc1ccc(C(=O)N2CCN(c3ccc4[nH]c(=O)oc4c3)CC2)cc1	> 100 µM
Nc1c(Cl)c([N+](=O)[O-])cc2c1OCCCCO2	> 100 µM
CC(C)N1CCCOC(c2ccc([N+](=O)[O-])cc2)O1 (stereo not drawn)	> 100 µM
COc1cc(-c2c(C)c(C)nc(OC)c2C#N)cc(OC)c1OC	> 100 µM
Clc1ccc(CO/N=C(\Cn2ccnc2)c2ccc(Cl)cc2Cl)c(Cl)c1	2.53 µM
O=S1c2ccc(Cl)cc2CC(SSC2Cc3cc(Cl)ccc3S(=O)c3ccccc32)c2ccccc21 (stereo not drawn)	> 100 µM
COc1cc(-c2nc3ccccc3s2)ccc1OCc1nc2n(n1)S(=O)(=O)c1ccccc1N2C	> 100 µM
CC(C)N(c1cc2c(cc1F)c(=O)c(C(=O)O)cn2-c1ccc(N2CCN(C)CC2)cn1)C(C)C	> 100 µM
Nc1nncs1	4660 µM
COc1c(O)cc2c(c1O)C1O[C@H](CO)C(O)[C@H](O)[C@H]1OC2=O (stereo partly drawn)	> 100 µM
